Reference source: PubChem BioAssay (NCI)

- System: MDA-MB-435 melanoma
- Protocol: NCI-60 one-dose screen, 48 h (100 = growth as untreated, 0 = no growth, -100 = all killed)
- Measurement parameters: 10 µM unless noted
This is part of a sample that, as a whole, favours compounds with a hit. Of some 83,000 tested, about 20% had one in any assay. The source made the active and inactive calls. Rule for the calls: active = growth percent below 10; inactive = the rest.
Recorded growth for the following compounds

Before answering, review these 6 worked examples.
CCCCN(C(=O)CC)c1ccccc1: 108% (inactive)
CSc1cnc2ccccc2n1: 103% (inactive)
CC1(C)OC(=O)CC1=O: 104% (inactive)
O=C(CCl)Oc1ccc([N+](=O)[O-])cc1: 107% (inactive)
Cc1ccc(/C=N/NC(N)=S)s1: 106% (inactive)
CC(C)(CC(=O)O)CC(=O)O: 99.7% (inactive)

Exercise: // query growth value for entry NC(=S)N/N=C/c1ccc(OC(=O)COc2ccc(Cl)cc2)cn1
Solution: 59.1% (inactive)

Exercise: Recorded growth of CCOc1ccc2c(c1)c(C)cc(C)[n+]2CC , please.
Solution: 73.9% (inactive)

Exercise: What measured growth goes with Cc1ccc(Cc2ccc(C)cc2)cc1 ?
Solution: 97.5% (inactive)
